Measured Growth Rate, listed per entry.
Tested on: Fibroblast
method-notes: Incucyte cell viability with human fibroblast; further: unitless GR value; below 1 slowed growth and below 0 cell loss
Format: toxicity, cell-based
assay-conditions: 24 h, 10 µM, compound concentration 10 uM, replicate number 2, timepoint 24 hours
Enter a number only.

[ask] Give the measured Growth Rate of "Cc1ccccc1C#Cc1ccc(CCC(=O)O)cc1" .
[reply] 0.31

[ask] Give the measured Growth Rate of "CC(=O)c1ccc2c(c1)[C@@H]1C=CC[C@@H]1[C@H](c1cc3c(cc1Br)OCO3)N2" .
[reply] -0.18

Continuing:
[ask] Give the measured Growth Rate of "Oc1c(CN2CCN(c3ccccn3)CC2)cc(Cl)c2cccnc12" .
[reply] 0.89

[ask] Give the measured Growth Rate of "CC[C@H](Nc1ncnc2[nH]cnc12)c1nc2cccc(F)c2c(=O)n1-c1ccccc1" .
[reply] 0.75

[ask] Give the measured Growth Rate of "Nc1nccc(-c2ccn3c(N)nccc23)n1" .
[reply] 0.72

[ask] Give the measured Growth Rate of "COC1(C[S@@+]([O-])c2ccccc2)CCN(CCc2c[nH]c3ccc(F)cc23)CC1" .
[reply] 0.79
